kon by entry:
tested system: His-tagged canine IL-31 (interleukin 31) recombinant protein (canine)
experiment notes: BLI (Gator), biotinylated antibody on streptavidin probe, canine IL-31 as analyte
parameter: kon (M⁻¹ s⁻¹)

[[record]]
binder = "7475-H3K2-canIgGB (antibody, V domains shown) VH: EVQLVESGGDLVKPGGSLRLSCVASGFTFSSYAMSWVRQAPGKGLQWVARISNGGDYIFYADTVKGRFTISRDNAKNTLYLQMNSLRAEDTAMYYCTRRGHYNTSSYWYFDVWGQGTLVTVSS VL: EIVMTQSPASLSLSQEEKVTITCKASENVGTYVSWYQQKPGQAPKLLIYGASNRYTGVPSRFSGSGSATDFTLTISSVEPEDVAVYYCGQSYSYPPTFGAGTKVELKR"
parameter = "kon"
experimental_value = 100000

[[record]]
binder = "B2-H3K1-canIgGB (antibody, V domains shown) VH: EVQLVESGGDLVKPGGSLRLSCVASGFTFSDAWMDWVRQAPGKGLQWVAEIRSRAESHATYYAESVKGRFTISRDDAKNTVYLQMNSLRAEDTAVYYCTPASTMITTGWFAYWGQGTLVTVSS VL: EIVMTQTPLSLAVTPGELATISCRASQNISVYLHWYLQKPGQTPRVLIKYVSQSISGVSDRFSGSGSGSDFTLKISRVEAEDVGVYYCQNGHSFPYTFGQGTKLEIKR"
parameter = "kon"
experimental_value = 112000

[[record]]
binder = "B2-H2K2-canIgGB (antibody, V domains shown) VH: EVQLVESGGDLVKPGGSLRLSCVASGFTFSDAWMDWVRQAPGKGLEWVAEIRSRAESHATYYAESVKGRFTISRDDAKNMVYLQMNSLRAEDTAVYYCTPASTMITTGWFAYWGQGTLVTVSS VL: DIVMTQTPLSLSVSPGETASISCRASQNISVYLHWYRQKPGQSPQVLIKYVSQSISGVPDRFSGSGSGSDFTLRISRVEADDTGVYYCQNGHSFPYTFGQGTKLEIKR"
parameter = "kon"
experimental_value = 96200

[[record]]
binder = "6465-H3K2-canIgGB (antibody, V domains shown) VH: EVQLVESGGDLVKPGGSLRLSCVASGYSFTNYYLYWVRQAPGKGLEWVAELNPRNGGTNLNAKFKTRFTISRDNAKNMAYLQMNSLRAEDTAVYYCTRGGTTVVVRDVMDFWGQGTLVTVSS VL: DIVLTQTPLSLSVSPGEPASISCRASESVDSYGNSFMHWYRQKPGQSPQLLIYRASNLESGVPDRFSGSGSRTDFTLRISRVEADDAGVYYCQQSNEDPYTFGQGTKLEIKR"
parameter = "kon"
experimental_value = 519000

[[record]]
binder = "B2-H2K1-canIgGB (antibody, V domains shown) VH: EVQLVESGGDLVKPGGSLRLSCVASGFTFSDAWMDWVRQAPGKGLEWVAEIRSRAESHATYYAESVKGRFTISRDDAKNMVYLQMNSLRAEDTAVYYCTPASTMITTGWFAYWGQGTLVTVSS VL: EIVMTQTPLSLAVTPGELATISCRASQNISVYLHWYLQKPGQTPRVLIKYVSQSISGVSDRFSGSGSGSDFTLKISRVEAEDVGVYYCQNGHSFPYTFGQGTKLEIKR"
parameter = "kon"
experimental_value = 93800

[[record]]
binder = "7475-H1K3-canIgGB (antibody, V domains shown) VH: EVQLVESGGDLVKPGGSLRLSCVASGFTFSSYAMSWVRQAPGKGLQWVAYISNGGDYIFYADTVKGRFTISRDNARNTLYLQMNSLRSEDTAVYYCTRRGHYNTSSYWYFDVWGQGTLVTVSS VL: EIVMTQSPASLSLSQEEKVTITCKASENVGTYVSWYQQKPGQAPKLLIYGASNRYTGVPSRFSGSGSGTDFSFTISSLEPEDVAVYYCGQSYSYPPTFGAGTKVELKR"
parameter = "kon"
experimental_value = 295000

[[record]]
binder = "B2-mHvKv-canIgGB (antibody, V domains shown) VH: EVKLVESGGGLVQPGGSMKLSCAASGFTFSDAWMDWVRQSPERGLEWVAEIRSRAESHATYYAESVKGRFTISRDDSKGSVYLQMNSLGTEDTGIYYCTPASTMITTGWFAYWGQGTMVTVSS VL: NIVMTQSPAILSVTPGDRVSLSCRASQNISVYLHWYQQKSHDSPRVLIKYVSQSISGIPSRFSGSGSGSDFTLRINSVEPEDVGVYYCQNGHSFPYTFGGGTKLEIKR"
parameter = "kon"
experimental_value = 79900


Origin of the recorded values: patent EP4745156A1
